Test system: MDA-MB-468
ASSAY_NOTES: In vitro cytotoxic activity against human breast cancer cell line MD-MB-468 after 72 hr of drug exposure determined by the SRB assay
Format: functional, cell-based
PROTOCOL_CONDITIONS: MDA-MB-468, 72 h
Below, each of the molecules is paired with its reported pIC50 value.
Interpret pIC50 as the negative base-10 log of the concentration measured in mol/L.

Examples with their reported pIC50 follow.
{"SMILES_CODE": "CN(C)Cc1ccc2c(c1)C(=O)c1nccnc1C2=O", "pIC50": 7.00}
{"SMILES_CODE": "O=C1c2ccc(CN3CCOCC3)cc2C(=O)c2nccnc21", "pIC50": 5.49}
{"SMILES_CODE": "CO[C@@]12[C@H](COC(N)=O)C3=C(C(=O)C(C)=C(N)C3=O)N1C[C@@H]1N[C@@H]12", "pIC50": 6.57}
{"SMILES_CODE": "O=C1c2ccc(CN3CCCC3)cc2C(=O)c2nccnc21", "pIC50": 7.00}

Next item in the queue.
For this molecule ( "O=C1c2ccc(CN(CCO)CCO)cc2C(=O)c2nccnc21" ), measured pIC50 is 6.05
